# TARGET_DESC: MAPK1 (Homo sapiens, UniProt P28482)
# Construct: purchased in-house DSF panel (SGC Frankfurt)
# Sequence (P28482 whole entry): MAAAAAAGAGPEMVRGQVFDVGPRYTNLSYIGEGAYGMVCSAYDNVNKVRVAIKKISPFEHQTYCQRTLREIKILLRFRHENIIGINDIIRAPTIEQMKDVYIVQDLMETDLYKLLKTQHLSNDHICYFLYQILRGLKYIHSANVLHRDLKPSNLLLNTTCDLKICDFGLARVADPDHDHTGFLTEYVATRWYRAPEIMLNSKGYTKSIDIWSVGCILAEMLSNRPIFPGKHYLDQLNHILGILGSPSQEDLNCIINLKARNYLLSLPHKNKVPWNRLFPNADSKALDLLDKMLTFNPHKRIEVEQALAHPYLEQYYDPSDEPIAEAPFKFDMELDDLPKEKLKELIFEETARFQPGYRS
# ASSAY_NOTES: DSF
# Format: binding
Under this convention, fulfilled denotes ΔTm MAPK1 strictly below 0.3 °C and not fulfilled denotes ΔTm MAPK1 at or above 0.3 °C.

Data request: Report whether reported ΔTm MAPK1 is lower than 0.3 °C (strictly) for CC(C)OC(=O)c1cc(Nc2ccnc(NCc3ccc(NC(=O)OC(C)(C)C)cc3)n2)n[nH]1 [42d]
Data returned: fulfilled

Data request: Repeat with COC(=O)c1cc(Nc2ccnc(NCc3ccc(NC(=O)OC(C)(C)C)cc3)n2)[nH]n1 [21i]
Data returned: not fulfilled

Data request: Repeat with N#CCc1ccc(Nc2nccc(Nc3cc(C4CC4)[nH]n3)n2)cc1 [compound 1, reference compound]
Data returned: not fulfilled

Data request: Repeat with CC(C)(C)OC(=O)Nc1ccc(CNc2nccc(Nc3cc(C(=O)OC(C)(C)C)[nH]n3)n2)cc1 [43d]
Data returned: fulfilled
